assay_endpoint: glass transition temperature (°C)
State just the number; it will be interpreted in °C.

The following compounds have reported results that may help.
In: Determine from records and report glass transition temperature for *Oc1ccc(S(=O)(=O)c2ccc(Oc3ccc(P(C)(=O)c4ccc(*)cc4)cc3)cc2)cc1 (repeat unit)
Out: 233.00

In: Determine from records and report glass transition temperature for */C=C/c1ccc(*)c(-c2cc(OCCC(C)C)c(OCCC(C)C)cc2-c2ccccc2)c1 (repeat unit)
Out: 164.00

In: Determine from records and report glass transition temperature for *c1ccc2c(c1)C(=O)N(c1ccc(Oc3ccc(-c4ccc(Oc5ccc(N6C(=O)c7ccc(C(*)(C(F)(F)F)C(F)(F)F)cc7C6=O)cc5)cc4)cc3)cc1)C2=O (repeat unit)
Out: 288.00

Continuing:
In: Determine from records and report glass transition temperature for *c1ccc(C(=O)Nc2ccc(Oc3ccc(S(=O)(=O)c4ccc(Oc5ccc(NC(=O)c6ccc(N7C(=O)c8ccc(-c9cccc%10c9C(=O)N(*)C%10=O)cc8C7=O)cc6)cc5)cc4)cc3)cc2)cc1 (repeat unit)
Out: 287.00

* * *

Collected glass transition temperature values appear next to each entry.
State just the number; it will be interpreted in °C.

The following compounds have reported results that may help.
In: Determine from records and report glass transition temperature for *c1ccc(Oc2ccc(C3(c4ccc(Oc5ccc(N6C(=O)c7ccc(Oc8ccc(C9(c%10ccc(Oc%11ccc%12c(c%11)C(=O)N(*)C%12=O)cc%10)CCCCCCCCCCC9)cc8)cc7C6=O)cc5)cc4)CC4CCC3C4)cc2)cc1 (repeat unit)
Out: 259.00

In: Determine from records and report glass transition temperature for *C1Cc2ccccc2C1* (repeat unit)
Out: 188.50

In: Determine from records and report glass transition temperature for *c1ccc(Oc2cccc(N3C(=O)c4ccc(Oc5ccc6ccc(Oc7ccc8c(c7)C(=O)N(*)C8=O)cc6c5)cc4C3=O)c2)cc1 (repeat unit)
Out: 221.00

In: Determine from records and report glass transition temperature for *Oc1ccc(C(C)(C)c2ccc(OC(*)=O)c(CC)c2)cc1CC (repeat unit)
Out: 65.00

In: Determine from records and report glass transition temperature for *c1ccc(Oc2cc3ccccc3cc2Oc2ccc(N3C(=O)c4ccc(Oc5cc6ccccc6cc5Oc5ccc6c(c5)C(=O)N(*)C6=O)cc4C3=O)cc2)cc1 (repeat unit)
Out: 222.00

In: Determine from records and report glass transition temperature for *CC(*)(C)C(=O)OCCOc1ccc(/N=N/c2ccc(OC)cc2)cc1 (repeat unit)
Out: 109.00

Continuing:
In: Determine from records and report glass transition temperature for *NNC(=O)c1ccc(C(*)=O)cc1OCC (repeat unit)
Out: 240.00

In: Determine from records and report glass transition temperature for *OCCOC(=O)CCCC(=O)OCCOc1nc(-c2ccc(OCCCC)cc2)nc(*)c1-c1ccc(OCCCC)cc1 (repeat unit)
Out: 37.00

In: Determine from records and report glass transition temperature for *c1ccc(Oc2ccc(N3C(=O)c4cccc(Oc5cccc(Oc6cccc7c6C(=O)N(*)C7=O)c5)c4C3=O)cc2)cc1 (repeat unit)
Out: 226.00

In: Determine from records and report glass transition temperature for *Oc1ccc(C(c2ccc(Oc3ccc(C(=O)c4ccc(P(=O)(c5ccccc5)c5ccc(C(=O)c6ccc(*)cc6)cc5)cc4)cc3)cc2)(C(F)(F)F)C(F)(F)F)cc1 (repeat unit)
Out: 207.00

In: Determine from records and report glass transition temperature for *c1cccc(P(=O)(c2ccc(C(F)(F)F)cc2)c2cccc(-n3c(=O)c4c(-c5ccc(C(F)(F)F)cc5)c5c(=O)n(*)c(=O)c5c(-c5ccc(C(F)(F)F)cc5)c4c3=O)c2)c1 (repeat unit)
Out: 324.00

In: Determine from records and report glass transition temperature for *C(=O)Nc1cccc(NC(=O)c2ccc3c(c2)C(=O)N(c2cccc(N4C(=O)c5ccc(*)cc5C4=O)c2)C3=O)n1 (repeat unit)
Out: 339.00

In: Determine from records and report glass transition temperature for *Oc1ccc(Cc2ccc(OC(=O)c3cccc(C(*)=O)c3)cc2)cc1 (repeat unit)
Out: 150.00

In: Determine from records and report glass transition temperature for *OC(CCc1ccccc1)CC(*)=O (repeat unit)
Out: 18.00

In: Determine from records and report glass transition temperature for *CC(*)OC(=O)c1ccc(OCC)cc1 (repeat unit)
Out: 70.00

In: Determine from records and report glass transition temperature for *C(=O)Nc1ccc(Oc2ccc(C3(c4ccc(Oc5ccc(NC(=O)c6ccc7c(c6)C(=O)N(c6ccc(Oc8ccc(Oc9ccc(N%10C(=O)c%11ccc(*)cc%11C%10=O)cc9)c(C)c8)cc6)C7=O)cc5)cc4)NC(=O)c4ccccc43)cc2)cc1 (repeat unit)
Out: 293.00

In: Determine from records and report glass transition temperature for *CCCCCCCN1C(=O)c2ccc(C(=O)Oc3ccc(-c4ccc(OC(=O)c5ccc6c(c5)C(=O)N(*)C6=O)cc4)cc3)cc2C1=O (repeat unit)
Out: 117.00

In: Determine from records and report glass transition temperature for *Oc1c(C)cc(C(C)(C)c2cc(C)c(ON3C(=O)c4ccc(Oc5ccc(C6(c7ccc(Oc8ccc9c(c8)C(=O)N(*)C9=O)cc7)CCC(C(C)(C)C)CC6)cc5)cc4C3=O)c(C)c2)cc1C (repeat unit)
Out: 248.00

In: Determine from records and report glass transition temperature for *c1ccc(S(=O)(=O)c2ccc(N3C(=O)c4ccc(Oc5ccc6c(c5)C(=O)N(*)C6=O)cc4C3=O)cc2)cc1 (repeat unit)
Out: 286.00

In: Determine from records and report glass transition temperature for *CCCCCC(=O)N* (repeat unit)
Out: 55.73

In: Determine from records and report glass transition temperature for *CCNC(=O)c1ccc(C(=O)N*)c(Sc2ccccc2)c1 (repeat unit)
Out: 172.00

In: Determine from records and report glass transition temperature for *c1ccc(Oc2ccc(S(=O)(=O)c3ccc(Oc4ccc(-c5cc(*)[nH]n5)cc4)cc3)cc2)cc1 (repeat unit)
Out: 260.00

In: Determine from records and report glass transition temperature for *Nc1ccc(Br)cc1-c1ccc(NC(=O)c2cccc(C(*)=O)c2)cc1 (repeat unit)
Out: 253.00
